Values from patent US10975079B2

Target: BCRP (Homo sapiens)
Sequence (Q9UNQ0 1-655): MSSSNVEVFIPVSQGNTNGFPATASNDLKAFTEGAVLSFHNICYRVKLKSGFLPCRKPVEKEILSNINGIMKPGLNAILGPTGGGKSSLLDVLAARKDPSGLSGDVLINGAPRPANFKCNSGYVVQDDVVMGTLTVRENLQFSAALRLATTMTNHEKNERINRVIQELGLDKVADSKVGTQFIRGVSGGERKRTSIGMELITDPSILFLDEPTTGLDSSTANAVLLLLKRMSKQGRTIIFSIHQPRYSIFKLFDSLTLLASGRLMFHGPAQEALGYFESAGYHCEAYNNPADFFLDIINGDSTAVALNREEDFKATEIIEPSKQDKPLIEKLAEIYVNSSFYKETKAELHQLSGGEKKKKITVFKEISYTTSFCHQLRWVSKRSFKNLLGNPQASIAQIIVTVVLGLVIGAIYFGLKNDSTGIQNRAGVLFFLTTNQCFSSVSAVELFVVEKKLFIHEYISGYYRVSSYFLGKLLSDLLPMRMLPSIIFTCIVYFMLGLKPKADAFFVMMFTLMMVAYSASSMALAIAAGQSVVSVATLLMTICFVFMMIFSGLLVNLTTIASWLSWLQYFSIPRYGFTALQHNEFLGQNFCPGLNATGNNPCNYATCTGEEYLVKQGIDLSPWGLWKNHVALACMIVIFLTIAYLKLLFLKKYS
Assay: BCRP fluorimetric inhibition assay, Hoechst 33342 substrate, recombinant CHO-K1 cells
Settings: Hoechst 33342 (5 μm) substrate, 20 min at 37° C., fluorimetry
readoutType: IC50 (µM)

{"smilesText": "Nc1nc(-c2ccccc2)nc2[nH]nc(Nc3ccc(C(F)(F)F)cc3)c12", "readoutType": "IC50", "resultUnit": "µM", "obsValue": 1.7}
